system: HOP-92 NSCLC; experiment: NCI-60 one-dose screen, 48 h (100 = growth as untreated, 0 = no growth, -100 = all killed); conditions: 10 µM unless noted
About 83,000 compounds went through this panel and 20% of them were active in at least one assay; those are over-represented in the sample as a whole.
measurement-type: growth (%)
Give the number; % is assumed, so skip it.

I have this compound here, Cc1c(CC(=S)N2CCOCC2)nnn1-c1cccc(C(F)(F)F)c1 , and I need its recorded growth.
111

I have this compound here, CCSc1oc(C)nc1[P+](c1ccccc1)(c1ccccc1)c1ccccc1 , and I need its recorded growth.
25.3

I have this compound here, CNC(=O)c1ccccc1Nc1nc(Nc2cc(OC)c(OC)c(OC)c2)ncc1Br , and I need its recorded growth.
53.6

I have this compound here, CC/C(Cc1ccccc1)=C(\c1ccc(OCCCN(C)C)cc1)c1ccc(OC(=O)NCc2ccccc2)cc1 , and I need its recorded growth.
38.6

I have this compound here, O=C(NC1CC(F)C1)c1cc2cccnc2n1-c1ccc(Cl)c(Cl)c1 (configuration not stated) , and I need its recorded growth.
83

I have this compound here, O=C1/C=C/[C@@H](O)[C@@H]2C[C@@H](O)C[C@H]2/C=C/CCC[C@@H](O)CCO1 , and I need its recorded growth.
98

I have this compound here, Cc1ccc(-c2nc3nc(-c4ccccc4)nc(N4CCCN(S(C)(=O)=O)CC4)c3o2)cc1 , and I need its recorded growth.
84.9

* * *

system: HCT-116 colon; experiment: NCI-60 one-dose screen, 48 h (100 = growth as untreated, 0 = no growth, -100 = all killed); details: 10 µM unless noted
About 83,000 compounds went through this panel and 20% of them were active in at least one assay; those are over-represented in the sample as a whole.
measurement-type: growth (%)
Give the number; % is assumed, so skip it.

I have this compound here, Cn1cc(-c2nn3cc(-c4cccs4)nc3s2)c2cc(F)ccc21 , and I need its recorded growth.
14.2

I have this compound here, O=C(Nc1cc(Cl)ccc1O)c1cccc(Nc2ccnc(C(F)(F)F)c2)c1 , and I need its recorded growth.
26.1

I have this compound here, CNC(=O)c1cc(Oc2ccc3c(c2)sc2nc(-c4ccc(OC)cc4)cn23)ccn1 , and I need its recorded growth.
16

* * *

tested on: MDA-MB-435 melanoma; experiment: NCI-60 one-dose screen, 48 h; details: 10 µM unless noted
Compounds without any hit were thinned out: in the full panel of roughly 83,000, 20% have a hit. Active and inactive are the calls of the source. How the source made its calls: active means growth percent below 10; inactive means the rest.
Select the matching outcome among YES for active, NO for inactive

Any idea what this test logged for COc1ccc(/C(C)=C(/c2ccc(OCCCN(C)C)cc2)c2ccc(OC(=O)c3ccccc3)cc2)cc1 ?
NO

Any idea what this test logged for CCCCCCCCCCCCCCCCCC1=NC(C)(C)CN1CC(C)O (stereo not given) ?
NO

Any idea what this test logged for CCOC(=O)c1cc(C(=O)c2cc(OC)c(OC)c(OC)c2)n2ccccc12 ?
YES

Any idea what this test logged for O=C1/C(=C\c2ccccn2)c2ccccc2N1c1c(Cl)cccc1Cl ?
YES

Any idea what this test logged for C=CCn1c(SCC(=O)Nc2ccc(/C(C)=N/O)cc2)nnc1-c1cc(-c2ccc(S(N)(=O)=O)cc2)nc2ccccc12 ?
NO

Any idea what this test logged for Cc1ccc(N2C(=O)CCC2=O)cc1 ?
NO

Any idea what this test logged for CS(=O)(=O)Nc1cc(-c2ccc3ncc(C#N)c(Nc4ccc(F)c(Cl)c4)c3c2)cnc1Cl ?
YES

Any idea what this test logged for N#CSc1c[nH]c2cccc(/C=C/C(=O)/C=C(O)/C=C/c3cccc4[nH]cc(SC#N)c34)c12 ?
YES

Any idea what this test logged for Ic1ccccc1I ?
NO

Any idea what this test logged for CC1=C(CCC(C)NCc2ccc(OCCCN3CCCCC3)cc2)C(C)(C)CCC1 (stereo not given) ?
YES

Any idea what this test logged for O=C(/C=C/c1ccc(Oc2ccc(Br)cc2)cc1)c1ccc(Br)cc1 ?
NO

Any idea what this test logged for NS(=O)(=O)c1ccc(NC(=O)/C(=C\c2ccc(Cl)cc2Cl)NC(=O)c2ccccc2)cc1 ?
NO

Any idea what this test logged for O=C(Cc1ccc(NC(=O)c2cccc(Cl)c2)cc1)NCc1ccccc1 ?
YES

Any idea what this test logged for O=C1/C(=C/c2ccccn2)NC(=S)N1c1ccccc1Cl ?
NO

Any idea what this test logged for COc1ccc(/C=C(/c2ccccc2)[N+](=O)[O-])c(OC)c1 ?
YES

Any idea what this test logged for O=C(O)c1ccc(-c2ccc(/C=N/Nc3nc(Nc4ccccc4)nc(N4CCCCC4)n3)o2)cc1 ?
NO

Any idea what this test logged for O=c1cc(-c2ccccc2)[nH]c2ncc(-c3ccc(F)cc3)n12 ?
YES

Any idea what this test logged for C=CCN1C(=O)c2cccc3c(N4CCOCC4)ccc(c23)C1=O ?
YES

Any idea what this test logged for CC1(C)CC[C@]2(CO)CC[C@]3(C)[C@H](CC[C@@H]4[C@@]5(C)CCCNC(C)(C)[C@@H]5CC[C@]43C)[C@H]2[C@H]1O ?
NO

Any idea what this test logged for CCc1n(Cc2ccc3ccccc3n2)cc[n+]1Cc1ccc2ccccc2n1 ?
NO

Any idea what this test logged for Cc1ccc(C(=O)c2ccc(CC(=O)NN3C(=O)c4ccccc4C3=O)n2C)cc1 ?
NO

Any idea what this test logged for O=C(Nc1cc(Cl)ccc1O)c1cccc(Nc2ccnc(C(F)(F)F)c2)c1 ?
NO

Any idea what this test logged for COc1ccc(N2CCC(=S)NC2=S)cc1 ?
NO

Any idea what this test logged for C=C1C(=O)O[C@H]2[C@H]1CC/C(COC(=O)c1cc3cc(Cl)ccc3[nH]1)=C\CC[C@@]1(C)O[C@@H]21 ?
YES

Any idea what this test logged for O=C(Cc1ccccc1)Nc1cccc(N=Cc2ccccc2O)c1 ?
NO

* * *

test system: SNB-19 CNS; assay: NCI-60 one-dose screen, 48 h (100 = growth as untreated, 0 = no growth, -100 = all killed); conditions: 10 µM unless noted
About 83,000 compounds went through this panel and 20% of them were active in at least one assay; those are over-represented in the sample as a whole.
Values of growth greater than or equal to 80% map to Met; values below map to Not met.

I'd appreciate it if you could say whether NC(=O)c1cnc(Nc2cccc(N)c2)nc1NCCCNC(=O)C1CCC1 has growth at least equal to 80%.
Met

I'd appreciate it if you could say whether COc1ccc2c(c1)c(-c1nc(-c3c[nH]c4ncccc34)cs1)cn2CCCN1CCOCC1 has growth at least equal to 80%.
Not met

I'd appreciate it if you could say whether COc1ccc(/C=C/C(=O)c2ccc(NC(=O)CSc3nc4c([nH]3)c(=O)n(C)c(=O)n4C)cc2)cc1OC has growth at least equal to 80%.
Not met

I'd appreciate it if you could say whether COc1ccc(Cn2cc(C(=O)N=Nc3c(O)[nH]c4c(C)cccc34)nn2)cc1 has growth at least equal to 80%.
Met

I'd appreciate it if you could say whether CN1CCN(CC(=O)Nc2ccc3ncnc(Nc4ccc(Oc5cccc(C(F)(F)F)c5)c(Cl)c4)c3c2)CC1 has growth at least equal to 80%.
Not met

I'd appreciate it if you could say whether CSC1=Nc2c(c(C)c(-c3ccccc3)n2CCCC(=O)O)C2=NC(=O)C[C@H](C)N12 has growth at least equal to 80%.
Met

* * *

tested on: NCI-H522 lung; assay: NCI-60 one-dose screen, 48 h; conditions: 10 µM unless noted
This is part of a sample that, as a whole, favours compounds with a hit. Of some 83,000 tested, about 20% had one in any assay. Active and inactive are the calls of the source. The calls were made as follows: active = growth percent below 10; inactive = the rest.
Select the matching outcome among active, inactive

Any idea what this test logged for C=C(C)[C@@H]1CC[C@]2(C)[C@H](CC=C3[C@@H]4CC(C)(C)CC[C@]4(CO)CC[C@]32C)[C@@]1(C)CCCN ?
active

Any idea what this test logged for Nc1nc(N)c(N=Nc2ccccc2)c(-c2ccccc2)n1 ?
inactive

Any idea what this test logged for N=C(N)c1ccc(-c2ccc(-c3cc(Cl)cc(Cl)c3)s2)nc1 ?
inactive

Any idea what this test logged for CC(C)(C)n1cc(-c2ccnc(NCCCNS(=O)(=O)c3ccc(C(F)(F)F)cc3)c2)c(-c2cccc(F)c2)n1 ?
inactive

Any idea what this test logged for CCOC(=O)c1c(C)nc2c(c1N)CC(=O)N2Cc1ccc(OC)cc1 ?
active

Any idea what this test logged for O=S(=O)(NCCNc1nccc(-c2c(-c3cccc(O)c3)nc3occn23)n1)c1ccc(Br)cc1 ?
inactive

Any idea what this test logged for CCN1C(=O)N(CC)C2C1N=C(SCc1ccc(Cl)cc1)N2/N=C/C=C/c1ccccc1OC (stereo not drawn) ?
inactive

Any idea what this test logged for O=C1/C(=C/c2ccccn2)NC(=S)N1c1ccccc1Cl ?
inactive

* * *

test system: OVCAR-4 ovarian; assay: NCI-60 one-dose screen, 48 h; conditions: 10 µM unless noted
The panel holds about 83,000 compounds, 20% with a hit somewhere; the sample as a whole holds those more often. Activity calls are given as the source filed them. How the source made its calls: active means growth percent below 10; inactive means the rest.
Select the matching outcome among TRUE for active, FALSE for inactive

Any idea what this test logged for Nc1nc(N)c2c(n1)NC(c1cccc(Nc3ccnc4cc(C(F)(F)F)ccc34)c1)CC(c1ccccc1)=N2 (stereo not given) ?
FALSE

Any idea what this test logged for S=c1[nH]c(=S)c2c(-c3ccccc3)c(-c3ccccc3)oc2[nH]1 ?
FALSE

Any idea what this test logged for Cc1cn(-c2cc(NC(=O)c3cncc(C#Cc4c(N)ncc5ccc(F)cc45)c3)cc(C(F)(F)F)c2)cn1 ?
FALSE

Any idea what this test logged for CCCC(CC)(C(=O)Nc1ccc2nc(C)cc(N)c2c1)C(=O)Nc1ccc2nc(C)cc(N)c2c1 ?
FALSE

Any idea what this test logged for COc1ccc2c(c1)c(-c1nc(-c3c[nH]c4ncccc34)cs1)cn2CCCN1CCOCC1 ?
FALSE

Any idea what this test logged for O=C(N/N=C\c1ccccc1S(=O)(=O)O)N/N=C/c1ccccc1S(=O)(=O)O ?
FALSE

Any idea what this test logged for CC(=O)Oc1ccc(OC(C)=O)c2ccccc12 ?
TRUE

Any idea what this test logged for Cc1cccc(-c2nc(Nc3ccc4ncsc4c3)c3ccccc3n2)n1 ?
FALSE

Any idea what this test logged for C#CCn1cnc2cnc(Nc3cccc(NC(=O)C=C)c3)nc21 ?
FALSE

Any idea what this test logged for Cc1ccc(C(=O)c2ccc(CC(=O)NN3C(=O)c4ccccc4C3=O)n2C)cc1 ?
FALSE

Any idea what this test logged for COC(=O)c1c2c(n3ccccc13)C(=O)c1ccccc1C2=O ?
FALSE

Any idea what this test logged for Cc1ccc(C(=O)Nc2cccc(C#Cc3cccc4[nH]nc(N)c34)c2)cc1C(F)(F)F ?
FALSE

Any idea what this test logged for C=C(C)[C@@H]1CC[C@]2(C(N)=O)CC[C@]3(C)[C@H](CC[C@@H]4[C@@]5(C)CC[C@H](OCCC#N)C(C)(C)[C@@H]5CC[C@]43C)[C@@H]12 ?
FALSE

Any idea what this test logged for O=C1NC(=O)/C(=C/c2c(-c3ccccc3)nc3sc(COc4ccccc4)nn23)S1 ?
FALSE

Any idea what this test logged for CCNC(=O)Oc1ccc(/C(=C(/C)Cc2ccc(OC)cc2)c2ccc(OCCN3CCCCC3)cc2)cc1 ?
FALSE

These data points were gathered from PubChem BioAssay (NCI).
